The measured values listed here are drawn from patent US7902354B2.

test system: DLD-1 human colon carcinoma cells; assay: MTS cell viability assay, DLD-1 human colon carcinoma cells; assay type: cell-based; settings: DLD-1, 4 h compound incubation, MTS, read-out: IC50 Values, Cancerous Cells, Colon DLD-1
Record form. Attribute: IC50. Fill in for each entry.
Give bare numbers, in µM.

Example entries and their recorded answers appear below.
Q) Which IC50 value belongs to "O=C1C(=O)c2ccccc2C2=C1SCC1(CCN(C(=O)OCc3ccccc3)CC1)O2" ?
A) 3.11

Q) Which IC50 value belongs to CC(C)(C)c1ccc(OCC(O)CN2CCC3(CC2)CSC2=C(O3)c3ccccc3C(=O)C2=O)cc1 (stereo not shown) ?
A) 3.63

Q) Which IC50 value belongs to "Cc1cc(C(=O)N2CCC3(CC2)CSC2=C(O3)c3ccccc3C(=O)C2=O)nn1C" ?
A) 4

Q) Which IC50 value belongs to "O=C1C(=O)c2ccccc2C2=C1SCC1(CCN(C(=O)c3ccncc3)CC1)O2" ?
A) 4.29

Q) Which IC50 value belongs to "CC(C)(C)c1ccc(OC[C@H](O)CN2CCC3(CC2)CSC2=C(O3)c3ccccc3C(=O)C2=O)cc1" ?
A) 3.38

Lab note: each compound below needs its IC50 filled in.
1. O=C1C(=O)c2ccccc2C2=C1SCC1(CCN(C[C@@H](O)Cc3ccccc3)CC1)O2
2. O=C1C(=O)c2ccccc2C2=C1SCC1(CCN(S(=O)(=O)c3ccc(Cl)c(Cl)c3)CC1)O2
3. CC(C)COCC(O)CN1CCC2(CC1)CSC1=C(O2)c2ccccc2C(=O)C1=O (stereo not shown)
4. O=C1C(=O)c2ccccc2C2=C1SCC1(CCN(CC(O)COCc3ccco3)CC1)O2 (stereo not shown)
5. O=C1C(=O)c2ccccc2C2=C1SCC1(CCN(C(=O)c3ccc(Cl)c(Cl)c3)CC1)O2
6. CCCCCCCCCCN1CCC2(CC1)CSC1=C(O2)c2ccccc2C(=O)C1=O

A)
2.1
27.1
1.3
1.92
1.42
16.9

----------
tested on: DLD-1 human colon carcinoma cells; experiment: MTS cell viability assay, DLD-1 human colon carcinoma cells; format: cell-based; conditions: DLD-1, 4 h compound incubation, MTS, read-out: IC50 Values, Cancerous Cells, Colon DLD-1
Record form. Attribute: IC50. Fill in for each entry.
One number for each entry, in µM.

Q) Which IC50 value belongs to O=C1C(=O)c2ccccc2C2=C1SCC1(CCN(C(=O)c3ccoc3)CC1)O2 [Compound 43] ?
A) 2.26

Q) Which IC50 value belongs to O=C1C(=O)c2ccccc2C2=C1SCC1(CCN(C3C=CCCC3)CC1)O2 (centres unmarked) [Compound 135] ?
A) 4.89

Q) Which IC50 value belongs to COC(=O)C(=O)N1CCC2(CC1)CSC1=C(O2)c2ccccc2C(=O)C1=O [Compound 52] ?
A) 4.15

Q) Which IC50 value belongs to Cc1nn(C)c(C)c1S(=O)(=O)N1CCC2(CC1)CSC1=C(O2)c2ccccc2C(=O)C1=O [Compound 80] ?
A) 3.53

Q) Which IC50 value belongs to O=C1C(=O)c2ccccc2C2=C1SCC1(CCN(C(=O)Oc3ccc(F)cc3)CC1)O2 [Compound 97] ?
A) 4.39

Q) Which IC50 value belongs to O=C1C(=O)c2ccccc2C2=C1SCC1(CCN(C(=O)c3cc4ccccc4s3)CC1)O2 [Compound 51] ?
A) 11.6

Q) Which IC50 value belongs to Cc1cccc(C(=O)N2CCC3(CC2)CSC2=C(O3)c3ccccc3C(=O)C2=O)c1 [Compound 60] ?
A) 2.21

# next compound below
Q) Which IC50 value belongs to Cc1ccccc1OCC(O)CN1CCC2(CC1)CSC1=C(O2)c2ccccc2C(=O)C1=O (centres unmarked) [Compound 173] ?
A) 1.49

----------
Record form. Attribute: melting point. Fill in for each entry.

Q) Which melting point value belongs to O=C1C(=O)c2ccccc2C2=C1SCC1(CCCN(C(=O)Oc3cccc(C(F)(F)F)c3)CC1)O2 (stereo not drawn) ?
A) 111 to 114 °C

Q) Which melting point value belongs to "CC(C)(C)OC(=O)N1CCC2(CC1)CSC1=C(O2)c2cc(-c3ccccc3C(F)(F)F)ccc2C(=O)C1=O" ?
A) 223 to 225 °C

Q) Which melting point value belongs to "O=C1C(=O)c2ccccc2C2=C1SCC1(CCN(C(=O)c3ccc(-n4cccn4)cc3)CC1)O2" ?
A) 299 to 300 °C

Q) Which melting point value belongs to "O=C1C(=O)c2ccccc2C2=C1SCC1(CCN(CCCCc3ccccc3)CC1)O2" ?
A) 145 to 147 °C

Q) Which melting point value belongs to "COc1ccc2c(c1)C(=O)C(=O)C1=C2OC2(CCN(C[C@@H](O)Cc3ccccc3)CC2)CS1" ?
A) 146 to 147 °C

Lab note: each molecule below needs its melting point filled in.
1. O=C1C(=O)c2ccc(-c3ccncc3)cc2C2=C1SCC1(CCNCC1)O2
2. COc1ccc2c(c1)C1=C(SCC3(CCN(C[C@H](O)COc4ccc(Cl)cc4)CC3)O1)C(=O)C2=O
3. O=C1C(=O)c2ccccc2C2=C1SCC1(CCN(C[C@H](O)COc3ccc(C(=O)OCc4ccccc4)cc3)CC1)O2
4. CC(C)OCC(O)CN1CCC2(CC1)CSC1=C(O2)c2ccccc2C(=O)C1=O (stereo not drawn)

A)
223 to 228 °C
109 to 110 °C
83 to 84 °C
97 to 99 °C

----------
Record form. Attribute: melting point. Fill in for each entry.

Q) Which melting point value belongs to O=C1C(=O)c2ccccc2C2=C1SCC1(CCN(CC3CCCO3)CC1)O2 (stereo not drawn) ?
A) 155 to 159 °C

Q) Which melting point value belongs to "CC(C)(C)OC(=O)N1CCC2(CC1)CSC1=C(O2)c2cc(N3CCOCC3)ccc2C(=O)C1=O" ?
A) 243 to 244 °C

Q) Which melting point value belongs to "COc1ccc2c(c1)C1=C(SCC3(CCN(C(=O)Oc4cccc(C(F)(F)F)c4)CC3)O1)C(=O)C2=O" ?
A) 88 to 89 °C

Q) Which melting point value belongs to CC(C)(C)OC(=O)NC1CCC2(CC1)CSC1=C(O2)c2ccccc2C(=O)C1=O (stereo not drawn) ?
A) 224 to 225 °C

Q) Which melting point value belongs to "O=C1C(=O)c2ccccc2C2=C1SCC1(CCSCC1)O2" ?
A) 221 to 223 °C

Q) Which melting point value belongs to "COc1ccc2c(c1)C1=C(SCC3(CCN(C[C@@H](O)Cc4ccccc4)CC3)O1)C(=O)C2=O" ?
A) 110 °C

Lab note: each compound below needs its melting point filled in.
1. COc1ccc2c(c1)C(=O)C(=O)C1=C2OC2(CCN(C[C@H](O)COc3ccc(F)cc3)CC2)CS1
2. COc1ccc2c(c1)C1=C(SCC3(CCN(C[C@H](O)Cc4ccccc4)CC3)O1)C(=O)C2=O
3. O=C1C(=O)c2ccc(-c3ccccc3)cc2C2=C1SCC1(CCN(C[C@H](O)COc3ccc(Cl)cc3)CC1)O2

A)
1. 189 to 191 °C
2. 106 °C
3. 93 to 98 °C

----------
Record form. Attribute: melting point. Fill in for each entry.

Q) Which melting point value belongs to "O=C1C(=O)c2ccccc2C2=C1SCC1(CCN(CCCOc3ccc(Cl)cc3)CC1)O2" ?
A) 130 to 132 °C

Q) Which melting point value belongs to "O=C1C(=O)c2ccccc2C2=C1SCC1(CCN(CCCOc3ccc(F)cc3)CC1)O2" ?
A) 164 to 165 °C

Lab note: each molecule below needs its melting point filled in.
1. CC(C)(C)c1ccc(OC[C@@H](O)CN2CCC3(CC2)CSC2=C(O3)c3cc(Br)ccc3C(=O)C2=O)cc1
2. O=C1C(=O)c2ccc(-c3ccccc3)cc2C2=C1SCC1(CCN(Cc3ccc(F)cc3)CC1)O2
3. O=C1C(=O)c2ccccc2C2=C1SCC1(CCN(C(=O)c3cccc([N+](=O)[O-])c3)CC1)O2
4. O=C1C(=O)c2ccc(-c3ccccc3)cc2C2=C1SCC1(CCN(C[C@H](O)COc3ccc(F)cc3)CC1)O2
5. O=C1C(=O)c2ccccc2C2=C1SCC1(CCN(C(=O)c3nc4ccccc4[nH]3)CC1)O2
6. O=C1C(=O)c2ccccc2C2=C1SCC1(CCC(c3ccccc3)CC1)O2 (stereo not drawn)
7. O=C1C(=O)c2ccccc2C2=C1SCC1(CCN(Cc3ccc(F)cc3F)CC1)O2
8. CC(C)(C)OC(=O)N1CCC2(CC1)CSC1=C(O2)c2cc(-c3cccc(C(F)(F)F)c3)ccc2C(=O)C1=O

A)
["150 to 152 °C", "197 to 198 °C", "160 to 162 °C", "173 to 175 °C", "266 to 268 °C", "183 to 187 °C", "104 to 107 °C", "231 to 233 °C"]

----------
Record form. Attribute: melting point. Fill in for each entry.

Example entries and their recorded answers appear below.
Q) Which melting point value belongs to "COc1ccc2c(c1)C1=C(SCC3(CCN(C[C@H](O)COc4ccc(C(C)(C)C)cc4)CC3)O1)C(=O)C2=O" ?
A) 153 to 156 °C

Q) Which melting point value belongs to "COc1ccc2c(c1)C(=O)C(=O)C1=C2OC2(CCN(C(=O)Oc3cccc(C(F)(F)F)c3)CC2)CS1" ?
A) 233 to 234 °C

Q) Which melting point value belongs to O=C1C(=O)c2ccccc2C2=C1SCC1(CCN(C3CCCC3O)CC1)O2 (stereo not drawn) ?
A) 110 to 113 °C

Q) Which melting point value belongs to "Cl.O=C1C(=O)c2ccccc2C2=C1SCC1(CCN(C(=O)CC3CCNCC3)CC1)O2" ?
A) 200 to 202 °C

Q) Which melting point value belongs to "O=C1C(=O)c2ccc(Br)cc2C2=C1SCC1(CCN(C[C@@H](O)Cc3ccccc3)CC1)O2" ?
A) 82 to 83 °C

Q) Which melting point value belongs to "O=C1C(=O)c2ccccc2C2=C1SCC1(CCN(C[C@H](O)COc3ccc4cc(Br)ccc4c3)CC1)O2" ?
A) 183 to 184 °C

Lab note: each compound below needs its melting point filled in.
1. O=C1C(=O)c2ccc(N3CCCCC3)cc2C2=C1SCC1(CCNCC1)O2
2. Cc1ccc(S(=O)(=O)NC(=O)N2CCC3(CC2)CSC2=C(O3)c3ccccc3C(=O)C2=O)cc1
3. CCC(O)CN1CCC2(CC1)CSC1=C(O2)c2ccccc2C(=O)C1=O (stereo not drawn)

A)
300 °C (dec.)
153 to 158 °C
180 to 182 °C

Lab note: each compound below needs its melting point filled in.
1. O=C1C(=O)c2ccc(-c3ccccc3)cc2C2=C1SCC1(CCN(C[C@@H](O)COc3ccc(Cl)cc3)CC1)O2
2. O=C1C(=O)c2ccccc2C2=C1SCC1(CCN(C(=O)c3cn4c5c(cccc35)CCC4)CC1)O2
3. O=C1C(=O)c2ccccc2C2=C1SCC1(CCN(C(=O)NS(=O)(=O)c3ccccc3)CC1)O2
4. O=C1C(=O)c2ccccc2C2=C1SCC1(CCOCC1)O2
5. O=C1C(=O)c2ccccc2C2=C1SCC1(CCCN(C[C@H](O)Cc3ccccc3)C1)O2 (stereo partly drawn)
6. O=C1C(=O)c2ccc(Br)cc2C2=C1SCC1(CCN(C[C@H](O)Cc3ccccc3)CC1)O2

A)
["111 to 112 °C", "265 to 267 °C", "155 to 165 °C", "195 to 197 °C", "65 to 67 °C", "82 to 84 °C"]

Lab note: each compound below needs its melting point filled in.
1. CC(C)(C)OC(=O)N1CCC2(CC1)CSC1=C(O2)c2cc(-c3ccc(C(F)(F)F)cc3)ccc2C(=O)C1=O
2. O=C1C(=O)c2ccccc2C2=C1SCC1(CCN(CC3CCCCO3)CC1)O2 (stereo not drawn)
3. O=C1C(=O)c2ccccc2C2=C1SCC1(CCN(C3CCN(C(=O)Oc4cccc(C(F)(F)F)c4)CC3)CC1)O2

A)
1. 238 to 240 °C
2. 135 to 137 °C
3. 70 to 73 °C
